Tested on: ACHN
Assay: NCI tumour cell line growth inhibition, 48 h
Active and inactive are the calls of the source. Cut-off read from the data, not from the text of the source: active = GI50 up to about 1.1 µM and inactive = higher.
Write down one outcome, taken from 1 (active), -1 (inactive)

Look over these answered cases.
1. Cc1nnc2n1-c1ccccc1N(Cc1ccccc1)CC2    -1
2. C[C@]12CCC3[C@@H](CCC45OC4C(=O)CC[C@]35C)C1Cc1cnn(-c3ccc(F)cc3)c1N2 (some centres not stated)    -1
3. C/C=C(\C)CC/C=C/CO[Si](C)(C)C(C)(C)C    -1
4. CC1=C(C(=O)Nc2cccc(C(F)(F)F)c2)C(c2ccccc2F)C(C(=O)Nc2cccc(C(F)(F)F)c2)=C(C)N1    -1
5. CC1C2C=C(O)C(=O)C(C2=O)C1c1ccccc1 (configuration not stated)    -1

QUERY: Check the results log: what was the call for Cc1cccc2sc(NC(=O)c3cc([N+](=O)[O-])ccc3Cl)nc12 ?
RESULT: -1

QUERY: # lookup: test call for CCCCCCCCCCCCN(O)C(=O)c1ccccc1
RESULT: -1

QUERY: Assay result, entry CCC1(C)NN=c2s/c(=C/c3ccc(OC)cc3)c(=O)n2N1 (configuration not stated) — outcome?
RESULT: -1

QUERY: Please indicate how the test categorized CCOC(=O)c1cn2c(n1)sc1c(Cl)c(Cl)ccc12 .
RESULT: -1

QUERY: Record lookup: outcome of this test for COc1ccc2nc3n(c2c1)C(c1c(F)cccc1Cl)SC3 (configuration not stated) ?
RESULT: -1

* * *

Test system: UO-31
Experiment: NCI tumour cell line growth inhibition, 48 h
Calls of active or inactive are those of the source. No stated cut-off is given here; in the data, active = GI50 up to about 1.1 µM and inactive = higher.
MEASURED_ATTRIBUTE: GI50

Solved cases (8 shown):
1) Cc1nnc2n1N=C(c1ccccc1)/C(=C/c1ccc(-c3ccc(Cl)cc3)o1)S2    12.8 µM (inactive)
2) COc1ccc(OC)c(NC(=O)c2c(Cl)c(Cl)c(Cl)c(Cl)c2-c2nc3ccccc3[nH]2)c1    > 100 µM (inactive)
3) O=S(=O)(O)c1cc(Cl)c(O)c2ncc(Cl)cc12    57 µM (inactive)
4) CC(=O)OCC1OC(OC(C)=O)C(Nc2ncc(-c3ccc(C)cc3)s2)C(OC(C)=O)C1OC(C)=O (stereo not drawn)    14.7 µM (inactive)
5) CC(C)(C)C(=C[S+]([O-])/N=C/c1ccccc1)C(C)(C)C (stereo not drawn)    27.2 µM (inactive)
6) CCOC(=O)c1cc(=O)c2cccc3c2n1CCS3    77.8 µM (inactive)
7) COC(CC1(CCNc2ccccc2)C(=O)N(COCC[Si](C)(C)C)c2ccccc21)OC (stereo not drawn)    13.9 µM (inactive)
8) CC1CC2OC(=N)C1(C#N)C2(C#N)C#N (stereo not drawn)    24.5 µM (inactive)

QUERY: Given CN1CC(=O)N(C)c2ncn(Cc3ccccc3)c2C1=O , state its recorded GI50.
RESULT: > 100 µM (inactive)

QUERY: Form field: reported GI50 of COc1ccc(N)c(C(=O)CCNC(C)=O)c1 [KINURENAMINE]
RESULT: > 100 µM (inactive)

QUERY: // query GI50 value for entry O=C1Nc2ccccc2/C1=C1\C(=O)Nc2ccccc21 [ISOINDIGO]
RESULT: 13.6 µM (inactive)

QUERY: State the recorded GI50 for this entry: CC(NC(=O)c1ccc(OP(=O)(OCc2ccc([N+](=O)[O-])o2)N(C)CCCCCl)cc1)c1ccc(OCC2CCCCC2)c(C(N)=O)c1 (stereo not drawn)
RESULT: 1.83 µM (inactive)

QUERY: # lookup: GI50 of O=C(O)c1ccc2c(c1)CC1(C2)Cc2ccccc2C1=O (stereo not drawn)
RESULT: > 100 µM (inactive)

QUERY: Please report the recorded GI50 for CC(=O)OCC1OC(OC2CC3C(C)(C)C(O)CC[C@]3(C)C3CCC45CC4(CCC5[C@@H](C)CC(O)C(O)C(C)(C)O)[C@]23C)C(O)C(O)C1O (stereo partly drawn) .
RESULT: > 10 µM (inactive)

* * *

Tested on: SF-268
Experiment: NCI tumour cell line growth inhibition, 48 h
Where a name gives a salt, the structure may show the parent alone. Calls of active or inactive are those of the source. Cut-off read from the data, not from the text of the source: active = GI50 up to about 1.1 µM and inactive = higher.
Select the matching outcome among true (1) = active, false (0) = inactive

1) O=[N+]([O-])c1cc(Br)cc2cc(Cl)cnc12    false (0)
2) Cc1cc(C)n(CN(CCCCO)Cn2nc(C)cc2C)n1    false (0)
3) O=[N+]([O-])c1ccc(C2=NOC(c3ccccc3)N2C23CC4CC(CC(C4)C2)C3)cc1 (configuration not stated)    false (0)
4) CCCN(CCC)CCc1cc(C(C)=O)n(S(=O)(=O)c2ccc(C)cc2)c1    false (0)
5) CC(=O)O[C@H]1CC[C@@]2(C)C(=CC[C@H]3[C@@H]4CC[C@H](c5cc(C(F)(F)F)n(C(C)=O)n5)[C@@]4(C)CC[C@@H]32)C1    false (0)
6) Cc1c(-c2cc3n(n2)C(c2cccs2)C(C#N)=C(c2ccccc2)N3)c(=O)n(-c2ccccc2)n1C (configuration not stated)    false (0)
7) CCCn1c(=O)c2nn3c(=O)n(CCC)c(=O)c3nn2c1=O    false (0)
8) CN(C)CCC=C1c2ccccc2C=Cc2ccccc21 [CYCLOBENZAPRINE HYDROCHLORIDE]    false (0)
9) O=C(NNC(=O)c1ccccc1O)c1cccs1    false (0)
10) COc1c(C(C)C)cc2c3c1OC(=O)[C@@]31CCCC(C)(C)C1CC2 (some centres not stated)    false (0)

QUERY: Which outcome did this test record for the compound Nc1nc(Cl)nc2c1ncn2C1CCC(COP(=O)(O)OP(=O)(O)OP(=O)(O)O)O1 (configuration not stated) ?
RESULT: false (0)

QUERY: Assay outcome for Cc1ccccc1-n1c(N)c(-c2nc3ccccc3[nH]2)sc1=S : what was it?
RESULT: false (0)

QUERY: Could you kindly confirm the outcome this assay logged for N#Cc1c(-c2ccc(Cl)cc2)c2c(n(C3OC(CO)C(O)C(O)C3O)c1=S)CCC2 (configuration not stated) ?
RESULT: false (0)

QUERY: Please state the recorded outcome for this compound: CC1(C)OC(=O)C(C)(C)OC1=O
RESULT: false (0)

QUERY: Which result was noted for this compound in the test: CC(CC=O)Nc1nn2c(=O)c3ccccc3nc2s1 (configuration not stated)
RESULT: false (0)

QUERY: Name the outcome recorded for Clc1ccc(COc2ccccc2/C=N/c2c(-c3ccco3)nc3ccccn23)c(Cl)c1 in the assay.
RESULT: false (0)

QUERY: Hi, do you know how N#Cc1ccc(/N=N/N2CCCC2)cc1 came out in this test?
RESULT: false (0)

QUERY: Tell me the assay call for CCC1C(C)c2c([nH]c3ccccc23)C2C(=O)N(c3ccccc3)C(=O)C21 (configuration not stated) please.
RESULT: false (0)

QUERY: Status in this test for COc1cccc2c1C(=O)c1c(O)c3c(c(O)c1C2=O)C[C@@](O)(C(=O)CO)C[C@@H]3OC1CC(N2CCOCC2C#N)C(O)C(C)O1 (some centres not stated) ?
RESULT: true (1)

QUERY: Recorded call for C[C@]12CCC3[C@@H](CCC45OC4C(=O)CC[C@]35C)C1Cc1cnn(-c3ccc(F)cc3)c1N2 (some centres not stated) ?
RESULT: false (0)

* * *

Listed molecules paired with reported GI50
System: T47D
Assay: NCI tumour cell line growth inhibition, 48 h
Calls of active or inactive are those of the source. Rule as the data show it: active = GI50 up to about 1.1 µM and inactive = higher.

Example entries begin here.
1. CC(CC=O)Nc1nn2c(=O)c3ccccc3nc2s1 (configuration not stated)    > 100 µM (inactive)
2. S=c1[nH]c(Cl)cc2nc(Cl)cn12    23.4 µM (inactive)
3. N#Cc1c(N2CCCC2)nsc1NCc1ccccc1    74.6 µM (inactive)
4. COc1ccc(Nc2nc3ccc(C(F)(F)F)cc3nc2C(=O)O)cc1    33.4 µM (inactive)
5. O=[N+]([O-])C(=C1NCCN1)C(Cl)=C(Cl)Cl    > 100 µM (inactive)

QUERY: Look up GI50: COc1cc2c(cc1OC)C1C(O)C(OC)C=C3CC[N+](C)(C2)C31 (configuration not stated)
RESULT: > 100 µM (inactive)

QUERY: For the molecule O=C1C=CC(=O)N1c1ccc2c(c1)Cc1cc(NC(=O)C(F)(F)F)ccc1-2 , what GI50 is on record?
RESULT: 17.9 µM (inactive)

* * *

Test system: SF-295
Test: NCI tumour cell line growth inhibition, 48 h
Activity calls are given as the source filed them. Cut-off read from the data, not from the text of the source: active = GI50 up to about 1.1 µM and inactive = higher.
Hello, when you answer, please use one of the following outcomes: YES = active, NO = inactive

QUERY: Given CN(/N=C/c1ccccn1)C1=NCCCN1 , state the outcome it received in this test.
RESULT: NO

* * *

System: RPMI-8226
Test: NCI tumour cell line growth inhibition, 48 h
Active and inactive are the calls of the source. No stated cut-off is given here; in the data, active = GI50 up to about 1.1 µM and inactive = higher.
One label from this list, please: active, inactive

# count of solved cases: 2
1. O=[N+]([O-])c1cc(Br)cc2cc(Cl)cnc12    inactive
2. CC1CC2OC(=N)C1(C#N)C2(C#N)C#N (stereo unspecified)    inactive

QUERY: Call for entry Cc1ccnc2nc(-c3ccc4ccccc4c3)cc(O)c12 :
RESULT: active

QUERY: # fetch the recorded call for O=C(O)CN(c1ccc(Cl)cc1)S(=O)(=O)c1ccccc1 here
RESULT: inactive

QUERY: Short answer needed: outcome of this test for CC(=O)N/N=C1\NC(=O)C[C@H]2[C@@H]3CC=C4C[C@@H](OC(C)=O)CC[C@]4(C)[C@H]3CC[C@]12C ?
RESULT: inactive
